Every entry's value here was drawn from patent US9588122B2.

System: A431
Assay: Dose-dependent change in panel protein levels by western blot; note: key: (+) for increase; (−) for decrease; N.C.: (N.C) for no change; (~) for not detected
Type: cell-based, human
Conditions: dose-dependent, 16 h, western blot
MEASUREMENT NAME: CBFB protein level change

| COMPOUND | TARGET OR TEST SYSTEM | OBSERVED VALUE |
| --- | --- | --- |
| C#Cc1cccc(Nc2ncnc3cc(OCCOC)c(OCCOC)cc23)c1 [erlotinib] | A431 | + |
| COc1cc2ncnc(Nc3ccc(F)c(Cl)c3)c2cc1OCCCN1CCOCC1 [gefitinib] | A431 | + |
| O=c1[nH]c2ccccc2n1C1CCN(Cc2ccc(-c3nc4cc5[nH]cnc5cc4nc3-c3ccccc3)cc2)CC1 [A6730] | A431 | + |
| CC(=O)O[C@H]1C(=O)[C@@]2(C)[C@H]([C@H](OC(=O)c3ccccc3)[C@]3(O)C[C@H](OC(=O)[C@H](O)[C@@H](NC(=O)c4ccccc4)c4ccccc4)C(C)=C1C3(C)C)[C@]1(OC(C)=O)CO[C@@H]1C[C@@H]2O [paclitaxel] | A431 | N.C. |
| COc1cccc(-c2cc(=O)c3ccccc3o2)c1N [PD98059] | A431 | N.C. |
